Data provenance is ChEMBL document CHEMBL1275451.

Tested on: Candida albicans
Assay: Antifungal activity against Candida albicans after 48 hrs by CLSI method
Type: functional
*1 amine or outer side, *2 acyl side, *3 side chain or, on linkers, in order; H or OH if unused. Where a SMILES comes first, the peptide text is derived from it. Bridges are numbered along the chain shown (N, C = ends). [ ]: non-standard residue; d: D form. The star is where a group is joined. pTerphenylCO(4''-OnC5H11) = CCCCCOc1ccc(-c2ccc(-c3ccc(C(=O)*)cc3)cc2)cc1; Orn(4R-OH,5R-OH) = O=C([C@H](C[C@@H](O)[C@@H](O)N[*:3])N[*:1])[*:2]; hTyr(3S-OH,4S-OH) = N[C@H](C(=O)O)[C@H](O)[C@@H](O)c1ccc(O)cc1; Pro(3S-OH,4S-Me) = C[C@H]1CN[C@H](C(=O)O)[C@H]1O; Hyp = O=C(O)[C@@H]1C[C@@H](O)CN1

{"columns": ["molecule", "MIC"],
 "data": [
  ["CC[C@@H]([C@H](C)O)n1ncn(-c2ccc(N3CCN(c4ccc(OC[C@@H]5CO[C@@](Cn6cncn6)(c6ccc(F)cc6F)C5)cc4)CC3)cc2)c1=O", "0.015 µg/mL"],
  ["CCCCCOc1ccc(-c2ccc(-c3ccc(C(=O)N[C@H]4C[C@@H](O)[C@@H](O)NC(=O)[C@@H]5[C@@H](O)[C@@H](C)CN5C(=O)[C@H]([C@@H](C)O)NC(=O)[C@H]([C@H](O)[C@@H](O)c5ccc(O)cc5)NC(=O)[C@@H]5C[C@@H](O)CN5C(=O)[C@H]([C@@H](C)O)NC4=O)cc3)cc2)cc1 [ANIDULAFUNGIN] ({pTerphenylCO(4''-OnC5H11)}-[Orn(4R-OH,5R-OH)]T[Hyp][hTyr(3S-OH,4S-OH)]T[Pro(3S-OH,4S-Me)]; lactam 1-C)", "0.015 µg/mL"],
  ["C[C@@H](c1ncncc1F)[C@](O)(Cn1cncn1)c1ccc(F)cc1F", "0.015 µg/mL"],
  ["C[C@@H]1[C@H](O)[C@@H](C)/C=C/C=C/C=C/C=C/C=C/C=C/C=C/[C@H](O[C@@H]2O[C@H](C)[C@@H](O)[C@H](N)[C@@H]2O)C[C@@H]2O[C@](O)(C[C@@H](O)C[C@@H](O)[C@H](O)CC[C@@H](O)C[C@@H](O)CC(=O)O[C@H]1C)C[C@H](O)[C@H]2C(=O)O", "1 µg/mL"],
  ["OC(Cn1cncn1)(Cn1cncn1)c1ccc(F)cc1F", "0.12 µg/mL"]
]}
